Molecular target: Epidermal growth factor receptor (Homo sapiens, UniProt P00533)
Sequence (P00533 whole entry, the tested form may be a part): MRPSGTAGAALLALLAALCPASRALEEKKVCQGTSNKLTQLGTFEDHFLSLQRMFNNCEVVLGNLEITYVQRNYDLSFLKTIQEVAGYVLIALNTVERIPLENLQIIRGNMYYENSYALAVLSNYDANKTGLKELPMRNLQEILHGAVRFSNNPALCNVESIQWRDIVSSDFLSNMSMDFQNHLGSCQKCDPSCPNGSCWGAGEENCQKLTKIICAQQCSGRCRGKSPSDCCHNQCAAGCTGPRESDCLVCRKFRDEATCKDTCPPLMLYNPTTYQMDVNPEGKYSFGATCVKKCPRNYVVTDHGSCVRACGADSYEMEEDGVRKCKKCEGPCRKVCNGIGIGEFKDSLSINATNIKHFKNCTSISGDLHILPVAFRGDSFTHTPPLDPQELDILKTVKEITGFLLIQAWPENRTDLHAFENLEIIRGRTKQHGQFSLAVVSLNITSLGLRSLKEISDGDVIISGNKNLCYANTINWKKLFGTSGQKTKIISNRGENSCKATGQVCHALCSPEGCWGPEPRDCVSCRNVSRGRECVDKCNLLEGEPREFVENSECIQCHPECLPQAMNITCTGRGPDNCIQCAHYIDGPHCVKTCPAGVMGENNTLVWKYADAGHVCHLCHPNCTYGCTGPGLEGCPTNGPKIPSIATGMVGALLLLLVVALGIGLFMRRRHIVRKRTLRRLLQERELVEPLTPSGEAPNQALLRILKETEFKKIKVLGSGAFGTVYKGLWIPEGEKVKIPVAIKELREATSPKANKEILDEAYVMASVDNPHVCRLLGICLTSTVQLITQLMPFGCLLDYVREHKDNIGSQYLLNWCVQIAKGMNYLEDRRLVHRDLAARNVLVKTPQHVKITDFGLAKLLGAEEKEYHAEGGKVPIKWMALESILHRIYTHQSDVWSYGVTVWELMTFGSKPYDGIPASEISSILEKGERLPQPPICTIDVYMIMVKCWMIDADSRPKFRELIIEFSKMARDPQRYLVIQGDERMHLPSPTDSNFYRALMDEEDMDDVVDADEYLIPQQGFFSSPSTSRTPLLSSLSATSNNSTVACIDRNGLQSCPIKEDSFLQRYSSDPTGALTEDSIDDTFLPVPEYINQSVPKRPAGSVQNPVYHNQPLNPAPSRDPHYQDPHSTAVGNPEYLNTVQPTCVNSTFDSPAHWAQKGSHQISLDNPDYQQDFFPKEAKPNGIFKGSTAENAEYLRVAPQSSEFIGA
Assay: Inhibition of human EGFR TK domain expressed in Escherichia coli BL21 (DE3) pLysS using poly-Glu-Tyr (51 to 68 residues) as substrate incubated for 1 hr by ADP-Glo assay
pIC50: −log10 of the molar value.
parameter: pIC50

- substance smiles: "CNc1nc(C)c(C(=O)/C=C/c2ccsc2)s1"
  pIC50: 6.84

[1] CNc1nc(C)c(C(=O)/C=C/c2ccc(O)cc2)s1
[2] CNc1nc(C)c(C(=O)/C=C/c2nccs2)s1
IN: 1 or 2 : whose pIC50 is greater? Bench note: the answer is the label of the chosen record.
OUT: 1
